Data origin: PubChem BioAssay AID1963844

The molecules listed here are annotated with their viability, T/C.
- Test system: 422866-222-R5-J1-PDC complex spheroid viability;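 further: spheroids exposed to compounds for one week before readout; percent of DMSO vehicle wells luminescence so 100% = untreated viability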
- test method notes: Anticancer human tumor 422866-222-R5-J1-PDC patient-derived pancreatic adenocarcinoma cell line growth inhibition [POLQ]
- settings: second compound 0.0316 µM; first compound 0.001 µM; stronger effect = lower value
Report only the number, with the unit % understood.

>>> measured_result("CC[C@@]1(O)C(=O)OCc2c1cc1n(c2=O)Cc2cc3c(CN(C)C)c(O)ccc3nc2-1 + Cc1cccc(N(C)C(=O)C2C(O)CCN2c2nc(C)cc(C(F)(F)F)c2C#N)c1")
101
>>> measured_result("Cn1ncnc1[C@H]1c2n[nH]c(=O)c3cc(F)cc(c23)N[C@@H]1c1ccc(F)cc1 + Nc1ccc(C#CCN(C(=O)Cc2ncc(C(F)(F)F)cc2C(F)(F)F)c2ccc(F)cc2)nn1")
115

Now look at this one.
(Q) Any idea what viability, T/C was measured for Cn1ncnc1[C@H]1c2n[nH]c(=O)c3cc(F)cc(c23)N[C@@H]1c1ccc(F)cc1 + COC1C(OC(N)=O)C(O)C(Oc2ccc3c(O)c(NC(=O)c4ccc(O)c(CC=C(C)C)c4)c(=O)oc3c2C)OC1(C)C ?
(A) 100
